The values you see were collected from ChEMBL document CHEMBL3808344.

- SYSTEM NAME: UniProtKB Q96GD4
VALUE KIND: IC50 (nM)
Give the value in nM but do not write nM after it.

Entry O=C(Nc1ccc(CNc2nc3ccc(OCCN4CCOCC4)cc3o2)cc1)Nc1ccc(Cl)cc1Cl ; IC50 = 700

----------
- SYSTEM NAME: Aurora kinase B (Homo sapiens)
- TEST DESCRIPTION: Inhibition of Aurora B (unknown origin) using myelin protein as substrate assessed as ADP generation at 10 uM after 60 mins by ADP-glo assay relative to staurosporine
Provide the reported inhibition of each item.

Entry O=C(Nc1ccc(Br)cc1)Nc1ccc(CNc2nc3cc(OCCN4CCOCC4)ccc3o2)cc1 ; inhibition = 35%

Entry O=C(Nc1ccc(F)cc1)Nc1ccc(CNc2nc3ccc(OCCN4CCOCC4)cc3o2)cc1 ; inhibition = 34%

Entry O=C(Nc1ccccc1)Nc1cccc(COc2ccc3nc(NCCN4CCOCC4)oc3c2)c1 ; inhibition = 80%

Entry COc1ccc(NC(=O)Nc2ccc(CNc3nc4ccc(OCCN5CCOCC5)cc4o3)cc2)cc1 ; inhibition = 76%

Entry O=C(Nc1ccc(Cl)cc1)Nc1ccc(CNc2nc3ccc(OCCN4CCOCC4)cc3o2)cc1 ; inhibition = 66%

----------
- SYSTEM NAME: Aurora kinase A (Homo sapiens) (UniProt O14965)
- Sequence (whole entry): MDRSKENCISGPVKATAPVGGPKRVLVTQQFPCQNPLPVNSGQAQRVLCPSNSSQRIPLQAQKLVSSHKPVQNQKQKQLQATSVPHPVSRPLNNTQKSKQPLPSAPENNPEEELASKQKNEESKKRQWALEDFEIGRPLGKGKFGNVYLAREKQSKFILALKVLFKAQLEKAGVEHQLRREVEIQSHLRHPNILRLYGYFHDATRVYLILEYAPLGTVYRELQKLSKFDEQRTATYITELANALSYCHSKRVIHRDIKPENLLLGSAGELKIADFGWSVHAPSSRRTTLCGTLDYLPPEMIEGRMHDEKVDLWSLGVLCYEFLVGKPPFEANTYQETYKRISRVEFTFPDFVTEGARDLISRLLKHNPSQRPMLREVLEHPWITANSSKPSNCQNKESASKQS
- TEST DESCRIPTION: Inhibition of Aurora A (unknown origin) using myelin protein as substrate assessed as ADP generation at 10 uM after 60 mins by ADP-glo assay relative to staurosporine
Activity calls are given as the source filed them. The calls are words filed in the database; no cut-off is given here.
VALUE KIND: inhibition

Consider the following illustrative entries.
>>> df
                               query_smiles                               system_name  value_kind  observed_measurement
0  O=C(Nc1ccccc1)Nc1cccc(COc2ccc3nc(NCCN4CCOCC4)oc3c2)c1  Aurora kinase A (Homo sapiens) (UniProt O14965)  inhibition                    1%
1  Cc1ccc(NC(=O)Nc2ccc(CNc3nc4ccc(OCCN5CCOCC5)cc4o3)cc2)cc1  Aurora kinase A (Homo sapiens) (UniProt O14965)  inhibition              inactive
2  O=C(Nc1ccc(Br)cc1)Nc1ccc(COc2ccc3oc(NCCN4CCOCC4)nc3c2)cc1  Aurora kinase A (Homo sapiens) (UniProt O14965)  inhibition                    3%
3  O=C(Nc1ccc(CNc2nc3ccc(OCCN4CCOCC4)cc3o2)cc1)Nc1ccc(Cl)cc1Cl  Aurora kinase A (Homo sapiens) (UniProt O14965)  inhibition                    8%
4  O=C(Nc1ccc(Cl)cc1)Nc1ccc(CNc2nc3cc(OCCN4CCOCC4)ccc3o2)cc1  Aurora kinase A (Homo sapiens) (UniProt O14965)  inhibition                    8%
5  O=C(Nc1ccc(CNc2nc3ccc(OCCN4CCOCC4)cc3o2)cc1)Nc1cccc(Cl)c1  Aurora kinase A (Homo sapiens) (UniProt O14965)  inhibition                   13%
6  O=C(Nc1ccc(Cl)cc1)Nc1cccc(CNc2nc3ccc(OCCN4CCOCC4)cc3o2)c1  Aurora kinase A (Homo sapiens) (UniProt O14965)  inhibition                    8%
7  O=C(Nc1ccc(Cl)cc1)Nc1ccc(CNc2nc3ccc(OCCN4CCOCC4)cc3o2)cc1  Aurora kinase A (Homo sapiens) (UniProt O14965)  inhibition                    5%
8  O=C(Nc1ccc(Br)cc1)Nc1ccc(CNc2nc3cc(OCCN4CCOCC4)ccc3o2)cc1  Aurora kinase A (Homo sapiens) (UniProt O14965)  inhibition                   -6%
9  O=C(Nc1ccccc1)Nc1ccc(CNc2nc3ccc(OCCN4CCOCC4)cc3o2)cc1  Aurora kinase A (Homo sapiens) (UniProt O14965)  inhibition                   15%

Entry COc1ccc(NC(=O)Nc2ccc(CNc3nc4ccc(OCCN5CCOCC5)cc4o3)cc2)cc1 ; inhibition = 10%

Entry O=C(Nc1ccc(COc2ccc3nc(NCCN4CCOCC4)oc3c2)cc1)Nc1ccc(Cl)c(Cl)c1 ; inhibition = 2%

Entry O=C(Nc1ccc(CNc2nc3ccc(OCCN4CCOCC4)cc3o2)cc1)Nc1cccc(F)c1 ; inhibition = 7%

Entry O=C(Nc1ccc(F)cc1)Nc1ccc(CNc2nc3ccc(OCCN4CCOCC4)cc3o2)cc1 ; inhibition = inactive

Entry O=C(Nc1ccc(Br)cc1)Nc1ccc(COc2ccc3nc(NCCN4CCOCC4)oc3c2)cc1 ; inhibition = inactive

Entry O=C(Nc1ccc(Br)cc1)Nc1ccc(CNc2nc3ccc(OCCN4CCOCC4)cc3o2)cc1 ; inhibition = inactive

----------
- SYSTEM NAME: Aurora kinase B (Homo sapiens, UniProt Q96GD4)
- Sequence (Q96GD4 whole entry): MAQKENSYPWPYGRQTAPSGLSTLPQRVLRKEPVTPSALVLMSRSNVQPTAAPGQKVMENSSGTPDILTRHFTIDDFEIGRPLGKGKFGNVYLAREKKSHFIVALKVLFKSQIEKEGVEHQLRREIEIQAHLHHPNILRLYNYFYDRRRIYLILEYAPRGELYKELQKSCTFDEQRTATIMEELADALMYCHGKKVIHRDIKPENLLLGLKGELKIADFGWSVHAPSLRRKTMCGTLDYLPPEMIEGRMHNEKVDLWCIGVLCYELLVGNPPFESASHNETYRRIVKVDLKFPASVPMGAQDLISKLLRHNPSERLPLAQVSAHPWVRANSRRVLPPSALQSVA
- TEST DESCRIPTION: Inhibition of Aurora B (unknown origin) using myelin protein as substrate assessed as ADP generation at 10 uM after 60 mins by ADP-glo assay relative to staurosporine
VALUE KIND: inhibition

Entry O=C(Nc1ccc(CNc2nc3ccc(OCCN4CCOCC4)cc3o2)cc1)Nc1cccc(F)c1 ; inhibition = 63%

Entry O=C(Nc1ccc(Cl)cc1)Nc1ccc(COc2ccc3nc(NCCN4CCOCC4)oc3c2)cc1 ; inhibition = 94%

Entry O=C(Nc1ccc(Br)cc1)Nc1ccc(COc2ccc3oc(NCCN4CCOCC4)nc3c2)cc1 ; inhibition = 74%

Entry O=C(Nc1ccc(Br)cc1)Nc1ccc(COc2ccc3nc(NCCN4CCOCC4)oc3c2)cc1 ; inhibition = 55%

Entry Cc1ccc(NC(=O)Nc2ccc(CNc3nc4ccc(OCCN5CCOCC5)cc4o3)cc2)cc1 ; inhibition = 65%

Entry O=C(Nc1ccc(COc2ccc3nc(NCCN4CCOCC4)oc3c2)cc1)Nc1ccc(Cl)c(Cl)c1 ; inhibition = 70%

Entry O=C(Nc1ccc(COc2ccc3oc(NCCN4CCOCC4)nc3c2)cc1)Nc1ccc(Cl)c(Cl)c1 ; inhibition = 74%

Entry O=C(Nc1ccc(Cl)cc1)Nc1ccc(CNc2nc3cc(OCCN4CCOCC4)ccc3o2)cc1 ; inhibition = 42%

Entry O=C(Nc1ccc(Cl)cc1)Nc1cccc(CNc2nc3ccc(OCCN4CCOCC4)cc3o2)c1 ; inhibition = 45%

Entry O=C(Nc1ccc(CNc2nc3ccc(OCCN4CCOCC4)cc3o2)cc1)Nc1cccc(Cl)c1 ; inhibition = 58%

Entry O=C(Nc1ccccc1)Nc1cccc(CNc2nc3ccc(OCCN4CCOCC4)cc3o2)c1 ; inhibition = 30%

Entry O=C(Nc1ccc(Cl)cc1)Nc1ccc(COc2ccc3oc(NCCN4CCOCC4)nc3c2)cc1 ; inhibition = 37%

Entry O=C(Nc1ccc(CNc2nc3ccc(OCCN4CCOCC4)cc3o2)cc1)Nc1ccc(Cl)c(Cl)c1 ; inhibition = 88%

Entry O=C(Nc1ccccc1)Nc1ccc(CNc2nc3ccc(OCCN4CCOCC4)cc3o2)cc1 ; inhibition = 40%

Entry O=C(Nc1ccc(CNc2nc3ccc(OCCN4CCOCC4)cc3o2)cc1)Nc1ccc(Cl)cc1Cl ; inhibition = 86%

Entry O=C(Nc1ccc(CNc2nc3ccc(OCCN4CCOCC4)cc3o2)cc1)c1ccccc1 ; inhibition = 21%

Entry O=C(Nc1cccc(CNc2nc3ccc(OCCN4CCOCC4)cc3o2)c1)c1ccccc1 ; inhibition = 1%

Entry O=C(Nc1ccc(Br)cc1)Nc1ccc(CNc2nc3ccc(OCCN4CCOCC4)cc3o2)cc1 ; inhibition = 69%

----------
- SYSTEM NAME: Aurora kinase A (Homo sapiens) (UniProt O14965)
- TEST DESCRIPTION: Inhibition of Aurora A (unknown origin) using myelin protein as substrate assessed as ADP generation at 10 uM after 60 mins by ADP-glo assay relative to staurosporine
Provide the reported inhibition of each item.

Entry O=C(Nc1ccc(Cl)cc1)Nc1ccc(COc2ccc3oc(NCCN4CCOCC4)nc3c2)cc1 ; inhibition = 4%

Entry O=C(Nc1ccc(COc2ccc3oc(NCCN4CCOCC4)nc3c2)cc1)Nc1ccc(Cl)c(Cl)c1 ; inhibition = 5%

Entry O=C(Nc1ccc(CNc2nc3ccc(OCCN4CCOCC4)cc3o2)cc1)Nc1ccc(Cl)c(Cl)c1 ; inhibition = 24%
